# assayProcedure: qHTS assay to test for compound auto fluorescence at 535 nm (green) in HepG2 cells (AID 720675)
# conditionContext: green autofluorescence 485/535 nm, 1 h; series mostly up to 91.3 µM
Calls of active or inactive are those of the source. Calls come from the whole dose curve; as a rule, active = well fitted curve in the direction sought with a large enough effect in the repeat runs; inconclusive = weak or mixed curves; inactive = flat fitted curve, though single readings scatter.
valueType: fluorescence, % of fluorescein control

| compound | fluorescence, % of fluorescein control |
| --- | --- |
| NC(=O)c1ccncc1 | inactive |
| NC1[C@H]2CN(c3nc4c(cc3F)c(=O)c(C(=O)O)cn4-c3ccc(F)cc3F)C[C@@H]12 (stereo not given in full) | inactive |
| CC1=C(CC=O)C(C)(C)CCC1 | inactive |
| NCCNCCO | inactive |
| FC(F)(F)c1ccccc1Cl | inactive |

Value of fluorescence, % of fluorescein control reported for the compound CC(=O)Nc1cc(S(=O)(=O)O)cc2cc(S(=O)(=O)O)c(N=Nc3ccccc3)c(O)c12 is inactive

response.value for Cc1cscn1 (field: fluorescence, % of fluorescein control) = inactive

Reported fluorescence, % of fluorescein control ( O=C(O)CCC(=O)C(=O)O ) = inactive

----------
# assayProcedure: qHTS assay to test for compound auto fluorescence at 590 nm (red) in HEK293 cell free culture (AID 720683)
# conditionContext: cell-free medium autofluorescence, Ex540/Em590 red; series mostly up to 91.3 µM
Activity calls are given as the source filed them. Calls follow the shape of the dose curve; as a rule, active = well fitted curve in the direction sought with a large enough effect in the repeat runs; inconclusive = weak or mixed curves; inactive = flat fitted curve, though single readings scatter.
valueType: fluorescence, % of fluorescent control

| compound | fluorescence, % of fluorescent control |
| --- | --- |
| O=C(OC(=O)c1ccccc1)c1ccccc1 | inactive |
| Cc1ccccc1S | inactive |
| O=C(Cn1ccnc1[N+](=O)[O-])NCCO | inactive |
| CCOC(=O)[C@H](CCc1ccccc1)N[C@@H](C)C(=O)N(CC(=O)O)C1Cc2ccccc2C1 | inactive |
| O=C(/C=C/c1ccccc1)OCCc1ccccc1 | inactive |
| O=C1NCCN1CCO | inactive |
| C=COCC(C)C | inactive |
| COc1cc(C(=O)NC2CCN(C)CC2)ccc1Nc1ncc2c(n1)N(C1CCCC1)CC(F)(F)C(=O)N2C | inactive |

Kindly note the recorded fluorescence, % of fluorescent control for CC1(C)S[C@@H]2[C@H](NC(=O)C(c3ccccc3)S(=O)(=O)O)C(=O)N2[C@H]1C(=O)O (stereo partly drawn) , which is inactive

Lab note: measured fluorescence, % of fluorescent control of Cc1cc(C)cc(N)c1 was inactive

// field: fluorescence, % of fluorescent control; key: CCOc1ccccc1O[C@H](c1ccccc1)[C@H]1CNCCO1 ; value = inactive

Item: NNC(=O)CP(=O)(c1ccccc1)c1ccccc1 | fluorescence, % of fluorescent control: inactive

Sample CC[C@]1(O)C[C@H]2CN(CCc3c([nH]c4ccccc34)[C@@](C(=O)OC)(c3cc4c(cc3OC)N(C=O)[C@H]3[C@@](O)(C(=O)OC)[C@H](OC(C)=O)[C@]5(CC)C=CCN6CC[C@]43[C@@H]65)C2)C1 ; fluorescence, % of fluorescent control observed: inactive

----------
# assayProcedure: qHTS assay to identify small molecule HDAC inhibitors (AID 1259364);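 note: wild-type HCT-116 cells with endogenous class I/II HDAC activity; top concentration of the series differs between compounds; nearly all actives have a fitted effect of over 45% in size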
# conditionContext: HCT-116 HDAC-Glo I/II luminescence, 2 h; series mostly up to 92.4 µM
Inconclusive results are not listed. The source made the active and inactive calls. Calls come from the whole dose curve; as a rule, active = well fitted inhibition curve with a large enough effect in the repeat runs; inconclusive = weak or mixed curves; inactive = flat fitted curve, though single readings scatter.
I would appreciate it if you answered using one of these outcomes: active, inactive

Worked examples, 2 compounds total:
| compound | label |
| --- | --- |
| Cc1ccccc1S | inactive |
| CC(=O)Nc1ccc(C)cc1C | inactive |

Q. Please share the test call associated with Clc1ccc(Nc2nnc(Cc3ccncc3)c3ccccc23)cc1 .
A. inactive

Q. Field: outcome | Entry: Cc1ccco1
A. inactive

Q. # lookup: test call for c1ccc2sc(SN(C3CCCCC3)C3CCCCC3)nc2c1
A. inactive

Q. Which result was noted for this compound in the test: OC1(c2ccccc2)CCNCC1
A. inactive
